Catalogue of IC50 readings, one per entry.
- Target entity: recombinant glucosyltransferase domain of C. difficile Toxin B/TcdB (Clostridioides difficile)
- Construct: 6-His (C); purchased R&D Systems 6246-GT
- Sequence (P18177 1-543): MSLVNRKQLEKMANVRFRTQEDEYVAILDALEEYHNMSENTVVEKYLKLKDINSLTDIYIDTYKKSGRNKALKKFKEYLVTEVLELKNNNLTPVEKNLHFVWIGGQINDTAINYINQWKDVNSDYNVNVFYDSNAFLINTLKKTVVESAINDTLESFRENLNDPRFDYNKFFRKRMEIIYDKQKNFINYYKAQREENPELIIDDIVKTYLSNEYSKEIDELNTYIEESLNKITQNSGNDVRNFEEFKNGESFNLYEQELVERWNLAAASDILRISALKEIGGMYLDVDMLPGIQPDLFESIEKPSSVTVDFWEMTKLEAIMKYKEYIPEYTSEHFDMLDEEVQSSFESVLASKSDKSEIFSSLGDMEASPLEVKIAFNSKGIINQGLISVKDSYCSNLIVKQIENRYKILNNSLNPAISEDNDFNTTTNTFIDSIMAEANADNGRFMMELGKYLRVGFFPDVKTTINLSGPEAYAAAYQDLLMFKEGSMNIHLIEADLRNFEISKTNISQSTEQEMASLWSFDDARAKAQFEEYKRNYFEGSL
- Assay info: biochemical
Observable: IC50

> print(dat)
                                    compound    readout.value
 1  Nc1ccc(CN2C(=O)c3ccc(Cl)cc3NC(=O)[C@H]2Cc2ccccn2)cc1 [Example 23a]       1 to 10 µM
 2  COc1cccc(-c2cc(CN3C(=O)c4ccc(Cl)cc4NC(=O)[C@H]3Cc3ccccn3)ccc2C(=O)O)c1  0.1 to 0.999 µM
 3  CNC(=O)c1ccc(-c2cc(CN3C(=O)c4ccc(Cl)cc4NC(=O)[C@H]3Cc3ccccn3)ccc2C(=O)O)cc1       1 to 10 µM
 4  Cc1cc(CN2C(=O)c3ccc(Cl)cc3NC(=O)[C@H]2Cc2ccccn2)ccc1C(=O)Nc1ccc(F)cn1         < 0.1 µM
 5  COc1cc(CN2C(=O)c3ccc(Cl)cc3NC(=O)[C@H]2Cc2ccccn2)ccc1C(=O)O  0.1 to 0.999 µM
 6  O=C(Nc1cnccn1)c1ccc(CN2C(=O)c3ccc(Cl)cc3NC(=O)[C@H]2Cc2ccccn2)cc1         < 0.1 µM
 7  CC(=O)Nc1cc(CN2C(=O)c3ccc(Cl)cc3NC(=O)[C@H]2Cc2ccccn2)ccc1C(=O)O [Example 22a]  0.1 to 0.999 µM
 8  O=C(O)c1ccc(CN2C(=O)c3ccc(Cl)cc3NC(=O)[C@H]2Cc2ccccn2)cc1-c1cn[nH]c1  0.1 to 0.999 µM
 9  Cc1cnc(NC(=O)[C@H]2CC[C@H](CN3C(=O)c4ccc(Cl)cc4NC(=O)[C@H]3Cc3ccccn3)CC2)nc1         < 0.1 µM
10  O=C1Nc2cc(Cl)ccc2C(=O)N(Cc2cccc(NS(=O)(=O)c3ccccn3)c2)[C@@H]1Cc1ccccn1 [Example 30c]       1 to 10 µM
11  Cc1cccc(-c2cc(CN3C(=O)c4ccc(Cl)cc4NC(=O)[C@H]3Cc3ccccn3)ccc2C(=O)O)c1  0.1 to 0.999 µM
12  CN1CCN(c2ccc(NC(=O)c3ccc(CN4C(=O)c5ccc(Cl)cc5NC(=O)[C@H]4Cc4ccccn4)cc3)nc2)CC1         < 0.1 µM
13  O=C(Nc1ccc(F)cn1)c1ccc(CN2C(=O)c3ccc(Cl)cc3NC(=O)[C@H]2Cc2ccccn2)cc1Cl         < 0.1 µM
14  O=C(Nc1ccccn1)c1ccc(CN2C(=O)c3ccc(Cl)cc3NC(=O)[C@H]2c2ccccc2)cc1 [Example 35c]       1 to 10 µM
15  Nc1cccnc1C(=O)Nc1ccc(CN2C(=O)c3ccc(Cl)cc3NC(=O)[C@H]2Cc2ccccn2)cc1 [Example 45a]         < 0.1 µM
